B1: Ankyrin repeat and SOCS box protein 14, residues 532 to 572; numbered along this chain, A6NK59 (parent)
chain: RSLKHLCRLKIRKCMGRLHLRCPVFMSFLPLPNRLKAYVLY

Variants of: B1
Experiment: abundance fitness (aPCA) (normalised: wild type 0, dead -1); higher = more abundant; growth selection in yeast, the domain comes from the species named
Conditions: Homo sapiens
Threshold check on abundance fitness: at or above 0.2 gives 1 (yes), strictly below gives 0 (no).

RDLKHLCRLKIRKCMGRLHLRCPVFMSFLPLPNRLKAYVLY [S2D]: 1 (yes)
RSLKHLCRLKIRKCMGRLDLRCPVFMSFLPLPNRLKAYVLY [H19D]: 0 (no)
RSLKHLCRLKIRCCMGRLHLRCPVFMSFLPLPNRLKAYVLY [K13C]: 0 (no)
RSLKHLCRLKIRKCMGRLHLRCPVFMSFLMLPNRLKAYVLY [P30M]: 1 (yes)
RSLKHLCRLKIRKCMGRLHLRCPVFMSFLPLPNRLQAYVLY [K36Q]: 0 (no)
RSLKHLCRLKIRKCMGRLHLRCPVFMSFLTLPNRLKAYVLY [P30T]: 1 (yes)
RSLKHLCRLKIRKCMGRLHLRGPVFMSFLPLPNRLKAYVLY [C22G]: 0 (no)
RSLKHLCWLKIRKCMGRLHLRCPVFMSFLPLPNRLKAYVLY [R8W]: 1 (yes)

Pending variant:
**Query** Does RSLKHLCRLKIRKCMGRLHLRCPVFMSFLPLLNRLKAYVLY [P32L] have a reported abundance fitness of at least 0.2?
**Result** 1 (yes)
